System: FAK (Homo sapiens (Human)) | Read-out: IC50

Q: // IC50 lookup, key: COc1cc(N2CCOCC2)ccc1Nc1nc2c(c(Nc3ccccc3S(=O)(=O)NC(C)C)n1)C1(CC1)CN2
Ans: < 0.02 µM

Q: Try COc1cc(-n2ccccc2=O)ccc1Nc1nc2c(c(Nc3ccccc3S(=O)(=O)NC(C)C)n1)CCN2 next.
Ans: < 0.02 µM

Q: Also need COc1cc(N2CCOCC2)ccc1Nc1nc2c(c(Nc3ccccc3C(=O)N3CCCC3)n1)CCN2 , thanks.
Ans: > 1 µM

Q: Request: COc1cc(N2CCOCC2)ccc1Nc1nc2c(c(Nc3ccccc3S(=O)(=O)NCC(C)C)n1)C1(CC1)CN2
Ans: < 0.02 µM

Q: Okay, and COc1cc(N2CCOCC2)ccc1Nc1nc2c(c(Nc3ccccc3S(=O)(=O)NC3CCC3)n1)C1(CC1)CN2 ?
Ans: < 0.02 µM

Q: Check CC(C)NS(=O)(=O)c1ccccc1Nc1nc(Nc2ccc(N3CCOCC3)cc2F)nc2c1CCN2 too.
Ans: < 0.02 µM

Q: Another compound: COc1cc(N2CCCCC2)ccc1Nc1nc2c(c(Nc3ccccc3S(=O)(=O)NC(C)C)n1)CCN2
Ans: < 0.05 µM

Q: Same question, COc1cc(-n2ccnc2)ccc1Nc1nc2c(c(Nc3ccccc3S(=O)(=O)NC(C)C)n1)CCN2 this time
Ans: < 0.5 µM

Q: Consider next the compound CNC(=O)c1cccc(Nc2nc3c(c(Nc4ccccc4S(=O)(=O)NC(C)C)n2)CCN3)c1 in the same way.
Ans: < 0.02 µM

Q: And for COc1cc(N2CCOCC2)ccc1Nc1nc2c(c(Nc3ccccc3N(C)S(C)(=O)=O)n1)C(C)CN2 (racemic) ?
Ans: < 0.03 µM

Q: What do you get for COc1cc(N2CCOCC2)ccc1Nc1nc2c(c(Nc3ccccc3S(=O)(=O)Nc3ccccc3)n1)CCN2 ?
Ans: < 0.2 µM

Q: What do we get for COc1cc(N2CCOCC2)ccc1Nc1nc2c(c(Nc3ccccc3S(=O)(=O)NCC3CC3)n1)C(C)(C)CN2 ?
Ans: < 0.05 µM

Q: Ok, now COc1cc(N2CCOCC2)ccc1Nc1nc2c(c(Nc3ccccc3S(=O)(=O)NC3CC3)n1)CCN2
Ans: < 0.02 µM

Q: Try the compound COc1cc(N2CCOCC2)ccc1Nc1nc2c(c(Nc3ccccc3S(=O)(=O)C(C)C)n1)CCN2
Ans: < 0.02 µM

Q: Do the same for CNS(=O)(=O)c1ccccc1Nc1nc(Nc2cc(OC)c(OC)c(OC)c2)nc2c1C1(CC1)CN2 please
Ans: < 0.02 µM

====

Give measured IC50 for each item. Keep answers brief.
Target: PYK2 (Homo sapiens (Human), UniProt Q14289)
Sequence (Q14289 whole entry): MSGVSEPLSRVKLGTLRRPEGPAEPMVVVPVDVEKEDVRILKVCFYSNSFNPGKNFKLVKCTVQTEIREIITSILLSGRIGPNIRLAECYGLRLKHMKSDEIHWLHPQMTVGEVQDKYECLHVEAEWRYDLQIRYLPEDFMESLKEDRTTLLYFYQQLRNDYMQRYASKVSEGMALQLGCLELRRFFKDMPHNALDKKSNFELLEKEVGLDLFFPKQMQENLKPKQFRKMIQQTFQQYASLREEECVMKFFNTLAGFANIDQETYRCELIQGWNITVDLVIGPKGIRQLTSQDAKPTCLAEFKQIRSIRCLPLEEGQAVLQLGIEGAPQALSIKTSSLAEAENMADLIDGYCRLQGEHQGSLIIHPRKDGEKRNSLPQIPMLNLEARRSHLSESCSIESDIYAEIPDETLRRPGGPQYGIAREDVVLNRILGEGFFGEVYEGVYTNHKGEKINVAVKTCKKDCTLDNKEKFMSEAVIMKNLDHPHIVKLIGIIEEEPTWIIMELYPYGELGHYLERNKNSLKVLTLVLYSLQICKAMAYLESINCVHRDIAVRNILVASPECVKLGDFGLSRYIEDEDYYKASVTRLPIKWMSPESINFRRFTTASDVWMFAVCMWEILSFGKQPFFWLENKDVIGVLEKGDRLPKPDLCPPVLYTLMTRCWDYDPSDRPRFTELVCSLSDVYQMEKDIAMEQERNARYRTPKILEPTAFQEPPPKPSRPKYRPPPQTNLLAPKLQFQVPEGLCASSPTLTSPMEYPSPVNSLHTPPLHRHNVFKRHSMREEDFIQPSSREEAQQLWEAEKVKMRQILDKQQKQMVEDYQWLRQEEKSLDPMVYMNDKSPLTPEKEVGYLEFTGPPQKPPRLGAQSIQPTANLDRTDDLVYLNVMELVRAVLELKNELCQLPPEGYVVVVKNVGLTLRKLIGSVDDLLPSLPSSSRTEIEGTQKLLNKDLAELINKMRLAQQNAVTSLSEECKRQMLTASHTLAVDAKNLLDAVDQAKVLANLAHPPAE
Assay: Biochemical assay for PYK2 activity (LANCE TR-FRET, ULight-poly Glu,Ala,Tyr substrate)
Settings: GST-tagged PYK2, 40 min reaction

Q: Lab note: need IC50 for CC(C)NS(=O)(=O)c1ccccc1Nc1nc(Nc2ccc(N3CCOCC3)cc2F)nc2c1CCN2 [Example 55] on PYK2 (Homo sapiens (Human), UniProt Q14289), anyone have it?
Ans: < 0.02 µM

Q: One more compound: COc1cc(N2CCOCC2)ccc1Nc1nc2c(c(Nc3ccccc3S(=O)(=O)NC(C)C)n1)CCN2 [Example 40]
Ans: < 0.02 µM

Q: Follow-up item: COc1cc(N2CCC(N3CCNCC3)CC2)ccc1Nc1nc2c(c(Nc3ccccc3P(C)(C)=O)n1)CCN2 [Example 163]
Ans: < 0.05 µM

Q: Record: CNC(=O)c1ccccc1Nc1nc(Nc2ccc(N3CCOCC3)cc2OC)nc2c1CCN2 [Example 1]
Ans: < 0.1 µM

Q: Then what about the compound COc1cc(N2CCOCC2)ccc1Nc1nc2c(c(Nc3ccccc3N(C)S(C)(=O)=O)n1)C(C)CN2 (racemic) [Example 31] ?
Ans: < 0.02 µM

Q: Then COc1cc(N2CCC(N3CCN(C)CC3)CC2)ccc1Nc1nc2c(c(Nc3ccccc3S(=O)(=O)NC(C)C)n1)CCN2 [Example 96] ?
Ans: < 0.02 µM

Q: Can you check COc1cc(N2CCOCC2)ccc1Nc1nc2c(c(Nc3ccccc3NC(C)=O)n1)CCN2 [Example 9] next?
Ans: < 1 µM

====

Biological target: FAK (Homo sapiens (Human), UniProt Q05397)
Sequence (Q05397 whole entry): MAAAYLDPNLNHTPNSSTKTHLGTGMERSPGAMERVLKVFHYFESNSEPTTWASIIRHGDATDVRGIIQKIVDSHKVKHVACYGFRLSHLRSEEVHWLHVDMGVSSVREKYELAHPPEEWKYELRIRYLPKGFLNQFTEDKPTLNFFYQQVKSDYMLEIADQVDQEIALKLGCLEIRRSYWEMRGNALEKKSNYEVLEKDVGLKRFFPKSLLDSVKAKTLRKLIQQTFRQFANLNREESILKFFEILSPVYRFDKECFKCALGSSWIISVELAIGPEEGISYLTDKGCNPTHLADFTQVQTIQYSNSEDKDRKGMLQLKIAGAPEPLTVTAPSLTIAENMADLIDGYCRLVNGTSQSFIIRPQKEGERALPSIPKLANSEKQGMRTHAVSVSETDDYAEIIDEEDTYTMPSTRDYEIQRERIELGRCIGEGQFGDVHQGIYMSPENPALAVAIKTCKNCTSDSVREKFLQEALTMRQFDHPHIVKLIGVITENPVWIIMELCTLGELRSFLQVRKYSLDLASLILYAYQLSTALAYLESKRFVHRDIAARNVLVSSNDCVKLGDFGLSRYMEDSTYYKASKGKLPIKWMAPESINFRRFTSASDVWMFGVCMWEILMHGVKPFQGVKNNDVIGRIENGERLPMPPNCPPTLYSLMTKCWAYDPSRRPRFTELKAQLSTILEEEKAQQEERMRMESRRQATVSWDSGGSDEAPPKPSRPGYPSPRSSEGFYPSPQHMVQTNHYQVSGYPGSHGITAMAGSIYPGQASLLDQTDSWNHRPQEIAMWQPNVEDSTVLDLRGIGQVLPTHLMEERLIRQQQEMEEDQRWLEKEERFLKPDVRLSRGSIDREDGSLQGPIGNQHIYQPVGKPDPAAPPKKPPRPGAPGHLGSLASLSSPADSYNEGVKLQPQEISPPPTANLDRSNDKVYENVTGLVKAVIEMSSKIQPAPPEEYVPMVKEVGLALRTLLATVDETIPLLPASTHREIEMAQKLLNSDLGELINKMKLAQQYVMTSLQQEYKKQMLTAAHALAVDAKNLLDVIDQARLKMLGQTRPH
Kindly state IC50 for each of the entries shown.

Q: GET /values?readout=IC50&item= COc1cc(N2CCOCC2)ccc1Nc1nc2c(c(Nc3ccccc3S(=O)(=O)NC3CCCCC3)n1)C(C)CN2 (racemic) [Example 29]
Ans: < 50 nM

Q: Thanks! And CNC(=O)c1ccccc1Nc1nc(Nc2cc(OC)c(OC)c(OC)c2)nc2c1C(C)(C)CN2 [Example 130] ?
Ans: < 200 nM

Q: Param item: COc1cc(N2CCC(N3CCNCC3)CC2)ccc1Nc1nc2c(c(Nc3ccccc3S(=O)(=O)NC(C)C)n1)CCN2 [Example 97]
Ans: < 100 nM

Q: Then this compound: CNC(=O)c1ccccc1Nc1nc(Nc2cc(OC)c(OC)c(OC)c2)nc2c1CCN2 [Example 21]
Ans: < 1000 nM

Q: Follow-up item: COc1cc(N2CCOCC2)ccc1Nc1nc2c(c(Nc3ccccc3S(=O)(=O)NC3CCCC3)n1)C(C)CN2 (racemic) [Example 28]
Ans: < 300 nM

Q: Record: COCCNS(=O)(=O)c1ccccc1Nc1nc(Nc2ccc(N3CCOCC3)cc2OC)nc2c1CCN2 [Example 50]
Ans: < 50 nM

Q: Then what about the compound COc1cc(N2CCOCC2)ccc1Nc1nc2c(c(Nc3ccccc3S(=O)(=O)NC3CCCC3)n1)CCN2 [Example 7] ?
Ans: < 50 nM

Q: Input CCCNS(=O)(=O)c1ccccc1Nc1nc(Nc2ccc(N3CCOCC3)cc2OC)nc2c1C(C)CN2 (racemic) [Example 26]
Ans: < 20 nM

Q: Then this compound: COc1cc(-n2ncnn2)ccc1Nc1nc2c(c(Nc3ccccc3S(=O)(=O)NC(C)C)n1)CCN2 [Example 88]
Ans: < 50 nM

Q: Query COCCCNS(=O)(=O)c1ccccc1Nc1nc(Nc2ccc(N3CCOCC3)cc2OC)nc2c1CCN2 [Example 48] next
Ans: < 100 nM

Q: And what about the compound CNC(=O)c1ccccc1Nc1nc(Nc2ccc(N3CCOCC3)cc2OC)nc2c1C(C)(C)CN2 [Example 37] ?
Ans: < 20 nM

Q: Please answer likewise for CC(C)NS(=O)(=O)c1ccccc1Nc1nc(Nc2ccc(N3CCOCC3)nc2)nc2c1CCN2 [Example 57]
Ans: < 20 nM

Q: Param item: COc1cc(N2CCOCC2)ccc1Nc1nc2c(c(Nc3ccccc3S(=O)(=O)NC(C)(C)C)n1)CCN2 [Example 47]
Ans: < 200 nM

Q: Similarly, CNS(=O)(=O)c1ccccc1Nc1nc(Nc2ccc(N3CCOCC3)cc2OC)nc2c1C(C)(C)CN2 [Example 103] ?
Ans: < 20 nM

Q: Ok, now CNC(=O)c1ccc2c(c1Nc1nc(Nc3ccc(N4CCOCC4)cc3OC)nc3c1C(C)(C)CN3)OCO2 [Example 126]
Ans: < 1000 nM

Q: Same read-out for CC(C)NC(C)c1ccc(Nc2nc3c(c(Nc4ccccc4S(=O)(=O)NC(C)C)n2)CCN3)cc1 (stereo not drawn) [Example 72] ?
Ans: < 20 nM

Q: Item: CNC(=O)c1ccccc1Nc1nc(Nc2cccc3c2ccn3CCCN2CCOCC2)nc2c1CCN2 [Example 22]
Ans: < 100 nM

Q: Same read-out for Cc1cc(N2CCOCC2)ccc1Nc1nc2c(c(Nc3ccccc3S(=O)(=O)NC(C)C)n1)CCN2 [Example 66] ?
Ans: < 20 nM

Q: Quick one: CCC(C)NS(=O)(=O)c1ccccc1Nc1nc(Nc2ccc(N3CCOCC3)cc2OC)nc2c1CCN2 (stereo not drawn) [Example 44]
Ans: < 20 nM

Q: Please do the same for COc1cc(N2CCOCC2)ccc1Nc1nc2c(c(Nc3cccc(C)n3)n1)C(C)CN2 (racemic) [Example 33] as well.
Ans: < 500 nM

Q: Then CCC(C)NS(=O)(=O)c1ccccc1Nc1nc(Nc2ccc(N3CCOCC3)cc2OC)nc2c1C(C)(C)CN2 (stereo not drawn) [Example 112] ?
Ans: < 20 nM

Q: Then this compound: COc1cc(N2CCCC2)ccc1Nc1nc2c(c(Nc3ccccc3S(=O)(=O)NC(C)C)n1)CCN2 [Example 67]
Ans: < 50 nM

Q: Next record, please: CNC(=O)c1ccccc1Nc1nc(Nc2ccc(N3CCOCC3)cc2OC)nc2c1C(C)CN2 (racemic) [Example 23]
Ans: < 50 nM

Q: # repeat for COc1cc(N2CCOCC2)ccc1Nc1nc2c(c(Nc3ccccc3S(=O)(=O)Nc3ccccc3)n1)C(C)(C)CN2 [Example 116]
Ans: < 200 nM

Q: Also CNC(=O)c1ccccc1Nc1nc(Nc2cccc3c2OCCO3)nc2c1C(C)(C)CN2 [Example 128] , if possible.
Ans: < 20 nM

Q: Repeat with CCCCNS(=O)(=O)c1ccccc1Nc1nc(Nc2ccc(N3CCOCC3)cc2OC)nc2c1C(C)(C)CN2 [Example 110]
Ans: < 20 nM

Q: Can you check COc1cc(N2CCOCC2)ccc1Nc1nc2c(c(Nc3ccccc3S(=O)(=O)NC(C)C)n1)C(C)(C)CN2 [Example 105] next?
Ans: < 20 nM

Q: Do the same for COc1cc(OCCN2CCOCC2)ccc1Nc1nc2c(c(Nc3ccccc3S(=O)(=O)NC(C)C)n1)CCN2 [Example 70] please
Ans: < 20 nM

Q: Now try COc1cc(N2CCCC(O)C2)ccc1Nc1nc2c(c(Nc3ccccc3S(=O)(=O)NC(C)C)n1)CCN2 (stereo not drawn) [Example 81] .
Ans: < 20 nM

Q: Same question, CC(C)NS(=O)(=O)c1ccccc1Nc1nc(Nc2ccc(CO)cc2)nc2c1CCN2 [Example 54] this time
Ans: < 20 nM
